Where these numbers come from: patent US11964953B2

Molecular target: human DGKζ (Homo sapiens (Human))
Sequence (Q13574 other isoform, or with tags, fused parts or gaps): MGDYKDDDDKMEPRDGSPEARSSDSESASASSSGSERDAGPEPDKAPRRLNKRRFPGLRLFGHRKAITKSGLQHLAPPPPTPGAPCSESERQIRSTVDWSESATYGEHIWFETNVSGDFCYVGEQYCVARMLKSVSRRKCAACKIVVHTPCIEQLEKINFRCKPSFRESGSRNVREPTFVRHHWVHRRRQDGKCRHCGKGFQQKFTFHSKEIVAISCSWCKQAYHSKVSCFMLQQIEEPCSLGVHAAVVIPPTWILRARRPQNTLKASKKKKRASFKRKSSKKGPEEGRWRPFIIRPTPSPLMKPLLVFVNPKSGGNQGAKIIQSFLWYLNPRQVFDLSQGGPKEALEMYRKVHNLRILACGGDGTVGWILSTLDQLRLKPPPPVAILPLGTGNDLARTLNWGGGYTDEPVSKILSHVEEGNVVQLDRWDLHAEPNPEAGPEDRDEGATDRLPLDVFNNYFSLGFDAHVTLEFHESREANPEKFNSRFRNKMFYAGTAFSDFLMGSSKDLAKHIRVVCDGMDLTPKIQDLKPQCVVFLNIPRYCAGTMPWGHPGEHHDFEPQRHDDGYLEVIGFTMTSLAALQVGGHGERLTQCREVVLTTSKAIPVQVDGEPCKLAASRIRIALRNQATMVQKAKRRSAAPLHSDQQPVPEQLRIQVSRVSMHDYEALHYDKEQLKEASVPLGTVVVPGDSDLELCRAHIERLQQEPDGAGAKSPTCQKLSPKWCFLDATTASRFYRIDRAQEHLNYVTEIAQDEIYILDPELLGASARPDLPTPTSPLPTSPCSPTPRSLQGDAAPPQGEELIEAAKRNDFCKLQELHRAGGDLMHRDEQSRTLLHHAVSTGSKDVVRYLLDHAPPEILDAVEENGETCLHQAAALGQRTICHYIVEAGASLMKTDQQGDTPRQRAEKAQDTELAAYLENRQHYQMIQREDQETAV
Experiment: Human DGKζ kinase activity inhibition assay (ADP-Glo)
Assay type: biochemical
Conditions: in vitro human DGKζ kinase activity inhibition assay; read-out: IC50
property-name: IC50 (nM)

1. CC(C(N)=O)N(c1ccc(F)cc1)c1nc(N)c(C(=O)c2ccc(OCC(=O)N(C)CCc3ccccc3)cc2)s1 (racemic)
2. Cc1ccc(N(c2nc(N)c(C(=O)c3ccccc3)s2)C(C)C(N)=O)cc1 (racemic) [Example 73]
3. COc1ccc(N(c2nc(N)c(C(=O)c3ccc(OC(F)F)cc3)s2)C(C)C(N)=O)cc1 (racemic) [Example 174]
4. Cc1ccc(N(c2nc(N)c(C(=O)c3ccccc3)s2)C(C)C(N)=O)cc1 (single isomer, unassigned) [Example 73.1]
Lookup: // sort entries: IC50, high to low Reply with the item labels sorted in the order that was asked for.
Found: 4, 2, 1, 3
